Just for reference, patent US7589123B2 is where these values come from.

System: WI-38 cells
Assay: Viability of WI-38 cells, Alamar Blue (Assay 5)
Format: cell-based, human
Conditions: 30 μM
Measured endpoint: Decrease in cell viability (%)
Numeric only. Scale: %

Q) Query: Decrease in cell viability (%); subject: "COc1cc(CCC(=O)CC(=O)C(c2ccccc2)c2ccccc2)ccc1O"
A) 29

Q) Reported Decrease in cell viability (%) for "COc1cc(CCC(=O)CC(=O)C(C)(C)c2ccccc2)ccc1O" : what is it?
A) −7

Q) Look at this compound and give its reported Decrease in cell viability (%). "COc1cc(CCC(=O)CC(=O)c2ccc(Cl)cc2C)ccc1O"
A) 26

Q) Decrease in cell viability (%) lookup needed for CCC(=O)CC(=O)CCc1ccc(O)c(OC)c1 [3-gingerdione, reference compound] , thanks.
A) 5

Q) What Decrease in cell viability (%) value was documented for this compound, COc1cc(CCC(=O)C(C)C(=O)C2(C)CC2)ccc1O (stereo not drawn) ?
A) 4

Q) Quick check: Decrease in cell viability (%) of COc1cc(CCC(=O)C(C)C(=O)C(C)(C)C)ccc1O (stereo not drawn) ?
A) 10

Q) Recorded Decrease in cell viability (%) for "COc1cc(CCC(=O)CC(=O)c2ccc(-c3ccccc3)cc2)ccc1O" , please?
A) 15

Q) Look up Decrease in cell viability (%) for this compound: "COc1cc(/C=C/C(=O)CC(=O)c2ccc(O)c(OC)c2)ccc1O"
A) 11

Q) // lookup Decrease in cell viability (%) for "COc1cc(CCC(=O)CC(=O)c2ccc(F)cc2)ccc1O"
A) 10
